experimental-target: second (BD2: amino acids E352-E168) bromodomain of BRD4 (Homo sapiens)
Construct: protocol
measurement-notes: TR-FRET bromodomain binding assay, BRD4 BD2
measurement-setup: TR-FRET assay protocol (A-G, compound concentration range); Ki calculated from IC50, probe Kd and probe concentration; read-out: TR-FRET Binding Ki: BRD4 (BDII_E352-M457)
Measured Ki of individual entries
Numeric answer only, unit µM assumed.

Problem: Report Ki for "COc1cnccc1-c1cc(=O)n(C)nc1-c1ccccc1Oc1ccccc1" please.
Solution: 15.2

Problem: Try "CCN(CC)S(=O)(=O)c1cccc(-c2cc(=O)n(C)nc2-c2ccccc2Oc2ccccc2)c1" next.
Solution: 12.2

Problem: Try "CN1CC=C(c2cc(=O)n(C)nc2-c2ccccc2Oc2ccccc2)CC1" next.
Solution: 6.83

Problem: Try "Cn1cc(-c2cc(NS(=O)(=O)c3c[nH]cn3)ccc2Oc2ccccc2)ccc1=O" next.
Solution: 0.154
